system: DeltatarO mutant; assay: S. aureus survival, RN4220 and DeltatarO strains – OD600, teichoic acid synthesis inhibitors, primary screen (AID 463173); details: S. aureus RN4220 wild type/DeltatarO growth, OD600, 18 h, screened at 18.75 µg/mL (by protocol)
The whole screen tested about 52,000 compounds, of which about 4,300 (8.3%) were called active. No stated cut-off is given here; in the data, active means survival mostly below about 52% (no sharp cut-off); inactive means mostly above about 56%. What follows is part of a selection rich in actives, with near analogues and random picks from the rest.
Outcomes: active, inactive

Cc1ccc(CNC(=O)C2CCCCN2S(=O)(=O)c2ccc(F)cc2)cc1 (stereo not given) | inactive
Cc1c(Cl)cccc1NC(=O)Cn1c(CCC(=O)O)ccc1-c1cccs1 | inactive
Cc1c(Cl)cccc1-n1c(CCC(=O)O)ccc1-c1cccs1 | active
Cc1ccc(OCC(=O)Nc2nnc(S(=O)(=O)N3c4ccccc4CC3C)s2)cc1 (stereo not given) | active
Cc1ccc(Cn2ccnc2SCC(=O)NC2CCCC2)cc1 | inactive
CS(=O)(=O)Nc1ccc(-c2nc3ccccc3s2)cc1 | inactive
Cc1cc(Cl)ccc1-n1c(CCC(=O)O)ccc1-c1cccs1 | active
CC(C)NC(=O)c1nc2ccccc2s1 | inactive
CC(=O)c1ccc(-n2c(CCC(=O)O)ccc2-c2cccs2)cc1 | inactive
O=S(=O)(Nc1ccc(O)c(Sc2nc3ccccc3s2)c1)c1cc(Cl)ccc1Cl | active
O=C(O)C(Cc1c[nH]c2ccccc12)Nc1ncnc2c1oc1ccccc12 (stereo not given) | inactive
Cc1ccc(NC(=O)Cn2c(CCC(=O)O)ccc2-c2cccs2)cc1 | inactive
CC(C)c1ccc(C(=O)Nc2ccc(-c3nc4ccccc4s3)c(Cl)c2)cc1 | inactive
COc1ccc(CNC(=O)C2CCCN(S(=O)(=O)c3ccc4c(ccn4C)c3)C2)c(OC)c1 (stereo not given) | active
Cc1ccc(NC(=O)Cn2c(CCC(=O)O)ccc2-c2cccs2)cc1Cl | inactive

* * *

survival by entry:
test system: DeltatarO mutant; assay: S. aureus survival, RN4220 and DeltatarO strains – OD600, teichoic acid synthesis inhibitors, primary screen (AID 463173); conditions: S. aureus RN4220 wild type/DeltatarO growth, OD600, 18 h, active compounds read low, screened at 18.75 µg/mL (by protocol)
About 4,300 (8.3%) of roughly 52,000 compounds were called active. The sample holds actives, similar compounds and a random draw of the others, so the mix is not that of the screen.
OBSERVABLE: survival

COc1ccc(-c2onc(C)c2C)cc1S(=O)(=O)NCc1ccc(C)o1 | 89% (inactive)
O=C(Nc1ccccc1F)C(Cc1ccccc1)N1Cc2ccccc2C1=O (stereo unspecified) | 60% (inactive)
CCC(CC)C(=O)Nc1nnc(S(=O)(=O)N2c3ccccc3CC2C)s1 (stereo unspecified) | 61% (inactive)
Cc1ccc(NC(=O)C(CC(C)C)N2Cc3ccccc3C2=O)cc1F (stereo unspecified) | -5% (active)
COc1cc(NC(=O)Nc2cccc(-c3noc(C)n3)c2)cc(OC)c1OC | 128% (inactive)
Cc1ccccc1CNC(=O)Cn1c(=O)c2cccn2c2cccnc21 | 76% (inactive)

* * *

test system: DeltatarO mutant; assay: S. aureus survival, RN4220 and DeltatarO strains – OD600, teichoic acid synthesis inhibitors, primary screen (AID 463173); conditions: S. aureus RN4220 wild type/DeltatarO growth, OD600, 18 h, active compounds read low, screened at 18.75 µg/mL (by protocol)
The campaign covered roughly 52,000 compounds. About 4,300 (8.3%) were called active. Shown is part of a subset that was picked to be rich in actives.
OBSERVABLE: survival (%)

COc1cc(C2CC(=O)N(c3ccc(C)c(Cl)c3)C3=C2C(=O)OC3)cc(OC)c1OC (stereo not drawn) | 72
CCCN(CCC)CN1C(=O)S/C(=C/c2ccc(N(CC)CC)cc2)C1=O | 68
O=C(NCCc1ccccc1)C(=O)Nc1cccc(Br)c1 | 68
